biological target: nitrile hydratase (Pseudomonas chlororaphis, UniProt P27763+P27764); test: Preservation of nitrile hydration activity of washed cell suspension left standing ice-cooled with stabilizer; type: cell-based, Pseudomonas chlororaphis B23 (FERM BP-187); settings: 120 h; Table 1; 10 mg nitrile in 5 ml cell suspension, pH 6.5, left standing 5 days ice-cooled; no stabilizer: 42; read-out: % Residual Activity
Sequence (P27764 whole entry): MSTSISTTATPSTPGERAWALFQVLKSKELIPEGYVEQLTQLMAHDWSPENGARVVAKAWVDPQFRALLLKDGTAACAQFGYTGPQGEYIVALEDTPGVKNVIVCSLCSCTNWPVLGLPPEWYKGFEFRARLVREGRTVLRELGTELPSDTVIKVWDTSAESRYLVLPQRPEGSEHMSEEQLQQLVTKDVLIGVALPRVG
Sequence (P27763 whole entry): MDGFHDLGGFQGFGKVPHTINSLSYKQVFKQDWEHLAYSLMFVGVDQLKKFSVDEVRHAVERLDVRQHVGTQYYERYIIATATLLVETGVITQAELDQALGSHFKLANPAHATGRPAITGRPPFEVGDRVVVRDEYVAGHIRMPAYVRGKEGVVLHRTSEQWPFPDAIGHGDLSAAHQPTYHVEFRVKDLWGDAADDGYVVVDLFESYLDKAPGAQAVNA
Rule: activity at 10 mg below 80% gives met, anything at or above gives not met.

{"Molecule": "N#CCC(=O)O [Cyanoacetic acid]", "Assigned Label": "met"}
{"Molecule": "CCC#N [Propionitrile]", "Assigned Label": "not met"}
{"Molecule": "N#CCCN [β-Aminopropionitrile]", "Assigned Label": "met"}
{"Molecule": "CC(C)C#N [Isobutyronitrile]", "Assigned Label": "not met"}
{"Molecule": "N#CCN [Glycine nitrile]", "Assigned Label": "met"}
{"Molecule": "CC(O)C#N (stereo not drawn) [Lactonitrile]", "Assigned Label": "met"}
{"Molecule": "N#CCCO [β-Hydroxypropionitrile]", "Assigned Label": "not met"}
{"Molecule": "C=CC#N [Acrylonitrile]", "Assigned Label": "met"}
{"Molecule": "CCCCCC#N [n-Capronitrile]", "Assigned Label": "not met"}
{"Molecule": "N#CCCl [Chloroacetonitrile]", "Assigned Label": "met"}
{"Molecule": "CCCCC#N [n-Valeronitrile]", "Assigned Label": "not met"}

----------
target: nitrile hydratase (Pseudomonas chlororaphis, UniProt P27763+P27764); assay: Preservation of nitrile hydration activity of washed cell suspension left standing ice-cooled with stabilizer; type: cell-based, Pseudomonas chlororaphis B23 (FERM BP-187); conditions: 120 h; Table 1; 10 mg nitrile in 5 ml cell suspension, pH 6.5, left standing 5 days ice-cooled; no stabilizer: 42; read-out: % Residual Activity
Catalogue of activity at 10 mg readings, one per entry.

{"Molecule": "C=C(C)C#N [Methacrylonitrile]", "System Name": "nitrile hydratase (Pseudomonas chlororaphis, UniProt P27763+P27764)", "activity at 10 mg, %": 80}
{"Molecule": "N#Cc1cccnc1 [Nicotinonitrile]", "System Name": "nitrile hydratase (Pseudomonas chlororaphis, UniProt P27763+P27764)", "activity at 10 mg, %": 73}
{"Molecule": "N#Cc1ccccc1 [Benzonitrile]", "System Name": "nitrile hydratase (Pseudomonas chlororaphis, UniProt P27763+P27764)", "activity at 10 mg, %": 70}
{"Molecule": "N#CCCCl [β-Chloropropionitrile]", "System Name": "nitrile hydratase (Pseudomonas chlororaphis, UniProt P27763+P27764)", "activity at 10 mg, %": 80}
{"Molecule": "CCCC#N [n-Butyronitrile]", "System Name": "nitrile hydratase (Pseudomonas chlororaphis, UniProt P27763+P27764)", "activity at 10 mg, %": 88}
{"Molecule": "N#CCC(N)=O [Cyanoacetamide]", "System Name": "nitrile hydratase (Pseudomonas chlororaphis, UniProt P27763+P27764)", "activity at 10 mg, %": 75}
{"Molecule": "N#CCCCCC#N [Adiponitrile]", "System Name": "nitrile hydratase (Pseudomonas chlororaphis, UniProt P27763+P27764)", "activity at 10 mg, %": 84}
